Cited source: PubChem BioAssay (NCI)

- System: K-562 leukemia
- experiment.notes: NCI-60 one-dose screen, 48 h (100 = growth as untreated, 0 = no growth, -100 = all killed)
- stated.conditions: 10 µM unless noted
This is part of a sample that, as a whole, favours compounds with a hit. Of some 83,000 tested, about 20% had one in any assay. Activity calls are given as the source filed them. Rule for the calls: active = growth percent below 10; inactive = the rest.
value.kind: growth

As a guide, the following entries are already answered.
compound	growth
CCN(c1ccc(C(=O)N2CCN(c3ccccc3)CC2)cc1)S(C)(=O)=O	96.4% (inactive)
CN1CCc2cccc3c2C1Cc1ccc(O)c(O)c1-3 (stereo not given)	64.3% (inactive)
O=C(CCc1nnc2sc(/C=C\c3ccccc3)nn12)c1nc2ccccc2[nH]1	2.17% (active)
O=c1c2c(=NCCN3CCCC3)cc3c(=O)n(CCCN4CCOCC4)c(=O)c4ccc(c(O)n1CCCN1CCOCC1)c2c4-3	3.73% (active)

Batch request: growth per item, same order as input.
1. COc1ccccc1CNCCCCCCCCCCCCN1C(=O)c2ccc3c4c(ccc(c24)C1=O)C(=O)N(CCCCCCCCCCCCNCc1ccccc1OC)C3=O
2. Cc1nc(NC(=O)COc2cccc(/C=C3\COc4ccccc4C3=O)c2)sc1C
3. COc1ccc(Nc2nc(NCCNc3ccnc4cc(Cl)ccc34)nc(N3CCOCC3)n2)cc1
4. Nc1cc(Br)c(-c2nnc(CCC(=O)c3nc4ccccc4[nH]3)o2)c(Br)c1
5. O=C(Nc1ccc(F)cc1)c1ccc(C(=O)Nc2ccc(F)cc2)cc1

1. 35.2% (inactive)
2. -65.2% (active)
3. 6.77% (active)
4. 27% (inactive)
5. 98.7% (inactive)

Which growth is listed for O=c1oc2ccccc2cc1-c1csc(N=Nc2c(O)[nH]c3ccc(Cl)cc23)n1 ?
98.7% (inactive)
